Test: in vitro
Conditions: human, Caco-2, pH 7.4
ATTRIBUTE MEASURED: efflux ratio at 2 h, 3 μM

// solved cases for efflux ratio at 2 h, 3 μM follow
1. [2H]C([2H])([2H])NC(=O)c1nnc(NC(=O)C2CC2)cc1Nc1cncc(-c2cnn(C3CC3)n2)c1OC 1.1
2. [2H]C([2H])([2H])NC(=O)c1nnc(NC(=O)C2CC2)cc1Nc1ccnc(-c2cnn(C3CC3)c2)c1OC 2.8
3. [2H]C([2H])([2H])NC(=O)c1nnc(NC(=O)C2CC2)cc1Nc1ccnc(-c2cnn(C)n2)c1OC 4.9

I'm hoping you can list efflux ratio at 2 h, 3 μM for every compound here, please.
1. [2H]C([2H])([2H])NC(=O)c1nnc(NC(=O)C2CC2)cc1Nc1ccnc(-c2cnn(C3CC3)n2)c1OC
2. [2H]C([2H])([2H])NC(=O)c1nnc(NC(=O)C2CC2)cc1Nc1ncnc(-c2cnn(C)n2)c1OC

3.3
1.8
